Numbers sourced from paper PMC10102027.

Test system: HIV-1 LTR G-quadruplex template (G4 LTR Stop)
Assay: Taq polymerase stop assay
Type: biochemical
Conditions: 2.5 µM, pixel intensity normalized against negative control
Protocol: To address specifically the positions in the HIV-1 promoter region that are affected by the binding of G4-stabilizing agents, we performed a Taq polymerase stop assay. […] A Taq polymerase stop assay was carried out as described in a previous study. […] The pixel intensity of bands was calculated using 1D gel analysis in ImageQuant TL software version 8.1 (GE HealthCare) after automatic background subtraction by Rolling Ball method.
readout: Fold change: B (G-patch 6)
Please give the numeric answer without any surrounding text.

Answered examples (3):
Requested field: Fold change: B (G-patch 6). Item: "Cn1cc(/C=C/c2cc(/C=C/c3cn(C)c4ccccc34)[n+]3c(c2)-c2c(ccc4c2-c2cccc[n+]2CCC4)CCC3)c2ccccc21"
2.1

Could you tell me which Fold change: B (G-patch 6) is on file for "COc1ccc2ccccc2c1/C=C/c1cc[n+]2c(c1)-c1c(c(C)c(C)c3c1-c1cc(/C=C/c4c(OC)ccc5ccccc45)cc[n+]1CC3)CC2" ?
2.5

For the molecule NCCOc1cc(C(=O)Nc2cc(OCCN)c3ccccc3n2)nc(C(=O)Nc2cc(OCCN)c3ccccc3n2)c1 [PDS, pyridostatin, reference compound] , what Fold change: B (G-patch 6) is on record?
2.7

Moving on to the next molecule.
What value of Fold change: B (G-patch 6) has been reported for the following molecule? "C(=C\c1cc(/C=C/c2ccc3c(c2)CCO3)[n+]2c(c1)-c1c(ccc3c1-c1cccc[n+]1CCC3)CCC2)/c1ccc2c(c1)CCO2"
2.0
